- Tested on: Fusarium oxysporum f. sp. vasinfectum
- test-method-notes: Antifungal activity against Fusarium oxysporum vasinfectum at 100 ppm after 144 hrs at 24 hrs intervals
- Type: functional
Recorded inhibition at 100 ppm for the following molecules

smiles-data: COc1c(OC(C)=O)cc2oc3cc(OC(C)=O)c(CC=C(C)C)c(O)c3c(=O)c2c1CC=C(C)C
inhibition at 100 ppm, %: 4
--
smiles-data: COc1c(OC(C)C)cc2oc3cc(OC(C)C)c(CC=C(C)C)c(O)c3c(=O)c2c1CC=C(C)C
inhibition at 100 ppm, %: 4
--
smiles-data: CCCOc1cc2oc3cc(OCCC)c(OC)c(CC=C(C)C)c3c(=O)c2c(O)c1CC=C(C)C
inhibition at 100 ppm, %: -6
--
smiles-data: COc1c(O)cc2oc3cc(O)c(CC=C(C)C)c(O)c3c(=O)c2c1CCC(C)(C)O
inhibition at 100 ppm, %: 12
--
smiles-data: O=c1c2ccccc2oc2ccccc12
inhibition at 100 ppm, %: 1

====

Each entry below carries its recorded inhibition at 1000 ppm.
- Test system: Drechslera
- test-method-notes: Antifungal activity against Drechslera oryzae at 1000 ppm after 168 hrs at 24 hrs intervals
- Assay type: functional
attribute-measured: inhibition at 1000 ppm (%)

molecule: COc1c(O)cc2oc3cc4c(c(O)c3c(=O)c2c1CC=C(C)C)CCC(C)(C)O4
attribute-measured: inhibition at 1000 ppm
unit: %
reported-measurement: 61
//
molecule: C=C(C)COc1cc2oc3cc(OCC(=C)C)c(OC)c(CC=C(C)C)c3c(=O)c2c(O)c1CC=C(C)C
attribute-measured: inhibition at 1000 ppm
unit: %
reported-measurement: 17
//
molecule: COc1c(O)cc2oc3cc(O)c(CC=C(C)C)c(O)c3c(=O)c2c1CC=C(C)C [MANGOSTIN]
attribute-measured: inhibition at 1000 ppm
unit: %
reported-measurement: 53
//
molecule: CC(C)=CCc1c(O)c(CC=C(C)C)c2oc3c(O)ccc(O)c3c(=O)c2c1O [GARTANIN]
attribute-measured: inhibition at 1000 ppm
unit: %
reported-measurement: 71
//
molecule: O=c1c2ccccc2oc2ccccc12 [XANTHONE]
attribute-measured: inhibition at 1000 ppm
unit: %
reported-measurement: 3

====

Property: inhibition at 1000 ppm; scope: individual compounds
- System: Alternaria alternata
- test-method-notes: Antifungal activity against Alternaria tenuis at 1000 ppm after 168 hrs at 24 hrs intervals
- Format: functional

compound: COc1c(O)cc2oc3cc(O)c(CC=C(C)C)c(O)c3c(=O)c2c1CC=C(C)C [MANGOSTIN]
unit: %
inhibition at 1000 ppm: 41
--
compound: COc1c(O)cc2oc3cc4c(c(O)c3c(=O)c2c1CC=C(C)C)CCC(C)(C)O4
unit: %
inhibition at 1000 ppm: 31
--
compound: CCCCOc1cc2oc3cc(OCCCC)c(OC)c(CC=C(C)C)c3c(=O)c2c(O)c1CC=C(C)C
unit: %
inhibition at 1000 ppm: -5
--
compound: CC(C)=CCc1c(O)cc2oc3cc(O)c(O)c(CC=C(C)C)c3c(=O)c2c1O
unit: %
inhibition at 1000 ppm: 58
--
compound: C=C(C)COc1cc2oc3cc(OCC(=C)C)c(OC)c(CC=C(C)C)c3c(=O)c2c(O)c1CC=C(C)C
unit: %
inhibition at 1000 ppm: -1

====

Quick list: inhibition at 1000 ppm per entry.
- Test system: Alternaria alternata
- test-method-notes: Antifungal activity against Alternaria tenuis at 1000 ppm after 168 hrs at 24 hrs intervals
- Assay type: functional

smiles-data: O=c1c2ccccc2oc2ccccc12
subject-of-test: Alternaria alternata
inhibition at 1000 ppm / %: -14
--
smiles-data: COc1c(OC(C)=O)cc2oc3cc(OC(C)=O)c(CC=C(C)C)c(O)c3c(=O)c2c1CC=C(C)C
subject-of-test: Alternaria alternata
inhibition at 1000 ppm / %: -6
--
smiles-data: COc1c(OC(C)C)cc2oc3cc(OC(C)C)c(CC=C(C)C)c(O)c3c(=O)c2c1CC=C(C)C
subject-of-test: Alternaria alternata
inhibition at 1000 ppm / %: 1
--
smiles-data: CCOc1cc2oc3cc(OCC)c(OC)c(CC=C(C)C)c3c(=O)c2c(O)c1CC=C(C)C
subject-of-test: Alternaria alternata
inhibition at 1000 ppm / %: -1
--
smiles-data: C=CCOc1cc2oc3cc(OCC=C)c(OC)c(CC=C(C)C)c3c(=O)c2c(O)c1CC=C(C)C
subject-of-test: Alternaria alternata
inhibition at 1000 ppm / %: 42
--
smiles-data: COc1cc2oc3cc(OC)c(OC)c(CC=C(C)C)c3c(=O)c2c(O)c1CC=C(C)C
subject-of-test: Alternaria alternata
inhibition at 1000 ppm / %: 16

====

- System: Drechslera
- test-method-notes: Antifungal activity against Drechslera oryzae at 1000 ppm after 168 hrs at 24 hrs intervals
- Assay type: functional
Given measured inhibition at 1000 ppm, output satisfied if it is greater than or equal to -10% and not satisfied if not.

compound: COc1c(OC(C)C)cc2oc3cc(OC(C)C)c(CC=C(C)C)c(O)c3c(=O)c2c1CC=C(C)C
category-label: satisfied
//
compound: CCOc1cc2oc3cc(OCC)c(OC)c(CC=C(C)C)c3c(=O)c2c(O)c1CC=C(C)C
category-label: not satisfied
//
compound: CC1(C)CCc2c(cc3oc4cc(O)c5c(c4c(=O)c3c2O)CCC(C)(C)O5)O1 [BR-XANTHONE A]
category-label: satisfied
//
compound: S=c1c2ccccc2oc2ccccc12
category-label: satisfied
//
compound: COc1c(O)cc2oc3cc(O)c(CC=C(C)C)c(O)c3c(=O)c2c1CCC(C)(C)O [GARCINONE D]
category-label: satisfied
//
compound: COc1c(OC(C)=O)cc2oc3cc(OC(C)=O)c(CC=C(C)C)c(O)c3c(=O)c2c1CC=C(C)C
category-label: satisfied
//
compound: COc1cc2oc3cc(OC)c(OC)c(CC=C(C)C)c3c(=O)c2c(O)c1CC=C(C)C
category-label: satisfied
//
compound: C=CCOc1cc2oc3cc(OCC=C)c(OC)c(CC=C(C)C)c3c(=O)c2c(O)c1CC=C(C)C
category-label: not satisfied
//
compound: CC(C)=CCc1c(O)cc2oc3cc(O)c(O)c(CC=C(C)C)c3c(=O)c2c1O
category-label: satisfied
//
compound: CCCCOc1cc2oc3cc(OCCCC)c(OC)c(CC=C(C)C)c3c(=O)c2c(O)c1CC=C(C)C
category-label: not satisfied

====

- Test system: Alternaria alternata
- test-method-notes: Antifungal activity against Alternaria tenuis at 1000 ppm after 168 hrs at 24 hrs intervals
- Format: functional

smiles-data: COc1c(O)cc2oc3cc(O)c(CC=C(C)C)c(O)c3c(=O)c2c1CCC(C)(C)O
subject-of-test: Alternaria alternata
unit: %
inhibition at 1000 ppm: 26
//
smiles-data: CCCOc1cc2oc3cc(OCCC)c(OC)c(CC=C(C)C)c3c(=O)c2c(O)c1CC=C(C)C
subject-of-test: Alternaria alternata
unit: %
inhibition at 1000 ppm: 1
//
smiles-data: S=c1c2ccccc2oc2ccccc12
subject-of-test: Alternaria alternata
unit: %
inhibition at 1000 ppm: -32
//
smiles-data: CC(C)=CCc1c(O)c(CC=C(C)C)c2oc3c(O)ccc(O)c3c(=O)c2c1O
subject-of-test: Alternaria alternata
unit: %
inhibition at 1000 ppm: 29
//
smiles-data: CC1(C)CCc2c(cc3oc4cc(O)c5c(c4c(=O)c3c2O)CCC(C)(C)O5)O1
subject-of-test: Alternaria alternata
unit: %
inhibition at 1000 ppm: 14

====

A collection of compounds and their measured inhibition at 10 ppm
- Test system: Fusarium oxysporum f. sp. vasinfectum
- test-method-notes: Antifungal activity against Fusarium oxysporum vasinfectum at 10 ppm after 144 hrs at 24 hrs intervals
- Type: functional

compound: COc1c(O)cc2oc3cc4c(c(O)c3c(=O)c2c1CC=C(C)C)CCC(C)(C)O4
inhibition at 10 ppm [%]: 8
//
compound: CC(C)=CCc1c(O)c(CC=C(C)C)c2oc3c(O)ccc(O)c3c(=O)c2c1O [GARTANIN]
inhibition at 10 ppm [%]: 4
//
compound: CC1(C)CCc2c(cc3oc4cc(O)c5c(c4c(=O)c3c2O)CCC(C)(C)O5)O1 [BR-XANTHONE A]
inhibition at 10 ppm [%]: 0
//
compound: COc1c(OC(C)=O)cc2oc3cc(OC(C)=O)c(CC=C(C)C)c(O)c3c(=O)c2c1CC=C(C)C
inhibition at 10 ppm [%]: 5
//
compound: CCCOc1cc2oc3cc(OCCC)c(OC)c(CC=C(C)C)c3c(=O)c2c(O)c1CC=C(C)C
inhibition at 10 ppm [%]: 5
//
compound: COc1c(OC(C)C)cc2oc3cc(OC(C)C)c(CC=C(C)C)c(O)c3c(=O)c2c1CC=C(C)C
inhibition at 10 ppm [%]: 1
//
compound: CCOc1cc2oc3cc(OCC)c(OC)c(CC=C(C)C)c3c(=O)c2c(O)c1CC=C(C)C
inhibition at 10 ppm [%]: -2
